Record form. Attribute: melting point. Fill in for each entry.

Returns the measured melting point for the input molecule. Input: COc1cc2nc(-c3cnc(N(C)C)nc3)nc(NCC(c3ccccc3)c3ccccc3)c2cc1OC [compound 23] 92 °C

Look up melting point: Nc1ncc(-c2nc(NCC(O)(c3ccccc3)c3ccccc3)c3ccccc3n2)cn1 [compound 97] 222 °C

For the molecule shown here, COc1cc2nc(-c3ccsc3)nc(NCC(c3ccccc3)c3ccccc3)c2cc1OC [compound 27] , give the reported melting point. 92 °C

So what does the record say about melting point for Cc1cc2nccn2cc1-c1nc(NC(CCc2ccccc2)c2ccccc2)c2ccccc2n1 (centres unmarked) [compound 167] ? 119 to 120 °C

Given the molecule Clc1cccc(C(CNc2nc(-c3cccnc3)nc3ccccc23)c2ccccc2)n1 (centres unmarked) [compound 53] , what is its reported melting point? 83 °C

Bench note: what melting point did c1ccc(C(CNc2nc(-c3cnc4[nH]ccc4c3)nc3ccccc23)c2ccccc2)cc1 [compound 123] show? 193 °C

Which melting point is reported for this molecule? Nc1ncc(-c2nc(NCC(c3ccccc3)c3ccccc3)c3ccccc3n2)cn1 [compound 44] 148 °C

Return reported melting point; argument: Cc1cc2nccn2cc1-c1nc(NCC(Oc2ccccc2)c2ccccc2)c2ccccc2n1 (centres unmarked) [compound 177] 243 to 246 °C

###

For each record, write down the corresponding melting point.

Any idea what its melting point is? The compound is c1ccc(CC(CNc2nc(-c3ccc4nccn4c3)nc3ccccc23)c2ccccc2)cc1 (centres unmarked) [compound 136] 208 to 210 °C

Item under review: COc1cc2nc(-c3ccc4[nH]ccc4c3)nc(NCC(c3ccccc3)c3ccccc3)c2cc1OC [compound 24] . Reported melting point? 117 °C

Fill in the blank: the reported melting point of Nc1ccc(-c2nc(NCC(c3ccccc3)c3ccccc3)c3ccccc3n2)cn1 [compound 88] is ____. 86 °C

Using the record for c1ccc(CCNc2nc(-c3ccc4nccn4c3)nc3ccccc23)cc1 [compound 161] , report its melting point. 246 to 247 °C

Query: melting point; subject: c1ccc(C(CNc2nc(-c3ccncc3)nc3ccccc23)c2ccccc2)cc1 [compound 39] 242 °C

Item c1ccc(C(CNc2nc(-c3ccsc3)nc3ccccc23)c2ccccc2)cc1 [compound 10] has what recorded melting point? 152 to 155 °C

Given the entry c1ccc(C(CNc2nc(-c3ccc4[nH]ccc4c3)nc3ccccc23)c2cccnc2)cc1 (centres unmarked) [compound 130] , report its measured melting point. 109 to 111 °C

Recorded melting point of CCN(CC)C(=O)[C@]1(c2ccccc2)C[C@@H]1CNc1nc(-c2ccc3nccn3c2)nc2ccccc12 [compound 170] , please. 221 to 223 °C

Item COc1cc2nc(-c3cccs3)nc(NCC(c3ccccc3)c3ccccc3)c2cc1OC [compound 26] has what recorded melting point? 94 °C

Value lookup for melting point; key = CN(C)c1ncc(-c2cccc(C(CNc3nc(-c4cnc(N(C)C)nc4)nc4ccccc34)c3ccccc3)n2)cn1 (centres unmarked) [compound 57] 112 °C

# get_value(readout='melting point', item= CN(C)c1ccc(-c2nc(NC(c3ccccc3)c3ccccc3)c3ccccc3n2)cn1 [compound 92] ) 207 °C

Item Oc1nc2cc(-c3nc(NCC(c4ccccc4)c4ccccc4)c4ccccc4n3)ccc2[nH]1 [compound 79] has what recorded melting point? 215 °C

Endpoint output: melting point of c1ccc2c(NCC(c3ccncc3)c3ccncc3)nc(-c3ccc4[nH]ccc4c3)nc2c1 [compound 173] . Value? 201 to 202 °C

Which value of melting point has been reported for c1ccc(C(CNc2nc(-c3cccc4cccnc34)nc3ccccc23)c2ccccc2)cc1 [compound 141] in the records? 102 to 104 °C

Which melting point is reported for this compound? c1ccc(C(CNc2nc(-c3ccc4nccn4c3)nc3ccccc23)N2CCCCC2)cc1 (centres unmarked) [compound 119] 193 to 195 °C

If you can, please state the reported melting point value of c1ccc2c(NCC(c3ccncc3)c3ccncc3)nc(N3CCc4[nH]ccc4C3)nc2c1 [compound 174] . 224 to 226 °C

Which melting point is reported for this compound? c1ccc(C(CNc2nc(-n3cncn3)nc3ccccc23)c2ccccc2)cc1 [compound 52] 216 °C

Could you tell me which melting point is on file for c1ccc(C(Nc2nc(-c3cc4ccccc4s3)nc3ccccc23)c2ccccc2)cc1 [compound 8] ? 180 to 182 °C

Give its melting point value. Item: c1ccc(C(CNc2nc(N3CCc4c([nH]c5ccccc45)C3)nc3ccccc23)c2ccccc2)cc1 [compound 190] 185 to 187 °C

Look at this compound and give its reported melting point. Cc1cc2nccn2cc1-c1nc(NCC(Cc2ccccc2)Cc2ccccc2)c2ccccc2n1 [compound 182] 181 to 184 °C

Please give the measured melting point for this compound: c1ccc(C(CNc2nc(-c3cnc(N4CCCCC4)nc3)nc3ccccc23)c2ccccc2)cc1 [compound 38] 92 °C

Quick one: melting point of c1ccc(C(CNc2nc(-c3ccc4nncn4c3)nc3ccccc23)c2ccccc2)cc1 [compound 114] ? 224 °C

Please give the measured melting point for this compound: c1ccc(C(CCNc2nc(N3CCCCC3)nc3ccccc23)c2ccccc2)cc1 [compound 9] 160 to 164 °C

Return reported melting point; argument: c1ccc(CCC(Nc2nc(-c3ccc4nccn4c3)nc3ccccc23)c2ccccc2)cc1 (centres unmarked) [compound 166] 190 to 192 °C

What measured melting point goes with Cc1cc2nccn2cc1-c1nc(NCC(CN(C)C)c2ccccc2)c2ccccc2n1 (centres unmarked) [compound 192] ? 250 to 252 °C

Which melting point value belongs to c1ccc(C(CCNc2nc(-c3cc4ccccc4s3)nc3ccccc23)c2ccccc2)cc1 [compound 19] ? 201 to 203 °C

Fill in the blank: the reported melting point of O=S(=O)(c1ccccc1)n1ccc2cc(-c3nc(NCC(c4ccccc4)c4ccccc4)c4ccccc4n3)ccc21 [compound 36] is ____. 203 °C

Need melting point, item c1cncc(C(CNc2nc(-c3ccc4nccn4c3)nc3ccccc23)c2ccc[nH]2)c1 (centres unmarked) [compound 155] 121 to 124 °C

Looking for the measured melting point of c1ccc2c(NCC(c3ccncc3)c3ccncc3)nc(-c3ccc4nccn4c3)nc2c1 [compound 158] , can you help? 192 to 196 °C

If you can, please state the reported melting point value of CC(=O)N[C@H](CNc1nc(-c2ccc3nccn3c2)nc2ccccc12)c1ccccc1 [compound 149] . 99 to 101 °C

// melting point lookup, key: c1ccc(C(CCNc2nc(-c3cncnc3)nc3ccccc23)c2ccccc2)cc1 [compound 22] 154 °C

# melting point lookup, item c1ccc(C(CNc2nc(-c3ccc4nccn4c3)nc3ccccc23)N2CCOCC2)cc1 (centres unmarked) [compound 122] > 250 °C
